These measurements were taken from ChEMBL document CHEMBL4308895.

System: DNA
Test: Induction of Escherichia coli pBR322 DNA cross-linking at 1 mM after 12 hrs in presence of GSH by agarose gel electrophoresis relative to control
Format: nucleic-acid assay
Catalogue of Activity readings, one per entry.
Record the value in %, omitting the unit from your answer.

mol: C[N+](C)(C)Cc1cc(-c2ccc(O)c(C[N+](C)(C)C)c2)ccc1O.[I-].[I-]
recordedValue: 0
--
mol: C[N+](C)(C)Cc1cc(O)c(C[N+](C)(C)C)cc1O.[I-].[I-]
recordedValue: 43
--
mol: C[N+](C)(C)Cc1cc(OS(=O)(=O)c2ccc([N+](=O)[O-])cc2[N+](=O)[O-])c(C[N+](C)(C)C)cc1OS(=O)(=O)c1ccc([N+](=O)[O-])cc1[N+](=O)[O-].[I-].[I-]
recordedValue: 34
--
mol: Cc1cc(C[N+](C)(C)C)c(O)c(C[N+](C)(C)C)c1.[I-].[I-]
recordedValue: 0
--
mol: Cc1cc(C[N+](C)(C)C)c(OS(=O)(=O)c2ccc([N+](=O)[O-])cc2[N+](=O)[O-])c(C[N+](C)(C)C)c1.[I-].[I-]
recordedValue: 0

Next compound, Activity to be filled in.
Query string: Quick one: give measured Activity for `C[N+](C)(C)Cc1cc(-c2ccc(OS(=O)(=O)c3ccc([N+](=O)[O-])cc3[N+](=O)[O-])c(C[N+](C)(C)C)c2)ccc1OS(=O)(=O)c1ccc([N+](=O)[O-])cc1[N+](=O)[O-].[I-].[I-]`
Result string: 0
